Data provenance: patent US12410153B2

experiment: Repeated once-daily oral dosing with food (Days 1-7) in healthy subjects, PK and PD; assay type: in vivo, human; conditions: female, human, plasma, oral, females, all doses pooled, Day 7; read-out: Vss/F, Mean (SD)
parameter: Vd/F (L)

1. Cc1ccc(COC(=O)N2CC[C@H](CNc3ncccn3)[C@H](F)C2)cc1 [Form II] ... 105

====

test: Human pharmacokinetic study, single ascending oral doses; format: in vivo; conditions: male, human, plasma, oral, 15 mg, fasted, mean; read-out: Tmax
parameter: Tmax (h)

1) Cc1ccc(COC(=O)N2CC[C@H](CNc3ncccn3)[C@H](F)C2)cc1 [Form II] ... 1.04

====

assay: Repeated once-daily oral dosing with food (Days 1-7) in healthy subjects, PK and PD; format: in vivo, human; conditions: both sexes, human, plasma, oral, 12 mg, young subjects, 12 mg, Day 1; read-out: Cmax, Mean (SD)
parameter: Cmax (ng/mL)

1) Cc1ccc(COC(=O)N2CC[C@H](CNc3ncccn3)[C@H](F)C2)cc1 [Form II] ... 239

====

test: Human pharmacokinetic study, single ascending oral doses; format: in vivo; settings: male, human, plasma, oral, 20 mg, fasted, mean
parameter: AUC(0-t) (ng·h/mL)

1) Cc1ccc(COC(=O)N2CC[C@H](CNc3ncccn3)[C@H](F)C2)cc1 [Form II] ... 5590

====

assay: Repeated once-daily oral dosing with food (Days 1-7) in healthy subjects, PK and PD; type: in vivo, human; settings: both sexes, human, plasma, oral, 12 mg, intermediate age, 12 mg, Day 1; read-out: tmax, Median
parameter: Tmax (h)

1) Cc1ccc(COC(=O)N2CC[C@H](CNc3ncccn3)[C@H](F)C2)cc1 [Form II] ... 2.5

====

assay: Human pharmacokinetic study, single ascending oral doses; format: in vivo; details: male, human, plasma, oral, 15 mg, fasted, mean
parameter: AUC(0-inf) (ng·h/mL)

1. Cc1ccc(COC(=O)N2CC[C@H](CNc3ncccn3)[C@H](F)C2)cc1 [Form II] ... 4400

====

assay: Repeated once-daily oral dosing with food (Days 1-7) in healthy subjects, PK and PD; type: in vivo, human; settings: both sexes, human, plasma, oral, 20 mg, young subjects, 20 mg, Day 1; read-out: tmax, Mean (SD)
parameter: Tmax (h)

1. Cc1ccc(COC(=O)N2CC[C@H](CNc3ncccn3)[C@H](F)C2)cc1 [Form II] ... 2.17

====

experiment: Repeated once-daily oral dosing with food (Days 1-7) in healthy subjects, PK and PD; type: in vivo, human; details: both sexes, human, plasma, oral, 12 mg, young subjects, 12 mg, Day 7; read-out: AUC0-24, Mean (SD)
parameter: AUC(0-t) (ng·h/mL)

1. Cc1ccc(COC(=O)N2CC[C@H](CNc3ncccn3)[C@H](F)C2)cc1 [Form II] ... 3060

====

experiment: Repeated once-daily oral dosing with food (Days 1-7) in healthy subjects, PK and PD; format: in vivo, human; conditions: both sexes, human, plasma, oral, 20 mg, young subjects, 20 mg, Day 7; read-out: tmax, Median
parameter: Tmax (h)

1. Cc1ccc(COC(=O)N2CC[C@H](CNc3ncccn3)[C@H](F)C2)cc1 [Form II] ... 1.5

====

Biological target: NMDA-GluN2B receptors, human temporal cortex homogenate (Homo sapiens, UniProt Q05586+Q13224)
Construct: temporal cortex homogenate (human); from tissue; host or cells: human temporal cortex homogenate
Sequence (Q13224 27-1484, other chains not shown): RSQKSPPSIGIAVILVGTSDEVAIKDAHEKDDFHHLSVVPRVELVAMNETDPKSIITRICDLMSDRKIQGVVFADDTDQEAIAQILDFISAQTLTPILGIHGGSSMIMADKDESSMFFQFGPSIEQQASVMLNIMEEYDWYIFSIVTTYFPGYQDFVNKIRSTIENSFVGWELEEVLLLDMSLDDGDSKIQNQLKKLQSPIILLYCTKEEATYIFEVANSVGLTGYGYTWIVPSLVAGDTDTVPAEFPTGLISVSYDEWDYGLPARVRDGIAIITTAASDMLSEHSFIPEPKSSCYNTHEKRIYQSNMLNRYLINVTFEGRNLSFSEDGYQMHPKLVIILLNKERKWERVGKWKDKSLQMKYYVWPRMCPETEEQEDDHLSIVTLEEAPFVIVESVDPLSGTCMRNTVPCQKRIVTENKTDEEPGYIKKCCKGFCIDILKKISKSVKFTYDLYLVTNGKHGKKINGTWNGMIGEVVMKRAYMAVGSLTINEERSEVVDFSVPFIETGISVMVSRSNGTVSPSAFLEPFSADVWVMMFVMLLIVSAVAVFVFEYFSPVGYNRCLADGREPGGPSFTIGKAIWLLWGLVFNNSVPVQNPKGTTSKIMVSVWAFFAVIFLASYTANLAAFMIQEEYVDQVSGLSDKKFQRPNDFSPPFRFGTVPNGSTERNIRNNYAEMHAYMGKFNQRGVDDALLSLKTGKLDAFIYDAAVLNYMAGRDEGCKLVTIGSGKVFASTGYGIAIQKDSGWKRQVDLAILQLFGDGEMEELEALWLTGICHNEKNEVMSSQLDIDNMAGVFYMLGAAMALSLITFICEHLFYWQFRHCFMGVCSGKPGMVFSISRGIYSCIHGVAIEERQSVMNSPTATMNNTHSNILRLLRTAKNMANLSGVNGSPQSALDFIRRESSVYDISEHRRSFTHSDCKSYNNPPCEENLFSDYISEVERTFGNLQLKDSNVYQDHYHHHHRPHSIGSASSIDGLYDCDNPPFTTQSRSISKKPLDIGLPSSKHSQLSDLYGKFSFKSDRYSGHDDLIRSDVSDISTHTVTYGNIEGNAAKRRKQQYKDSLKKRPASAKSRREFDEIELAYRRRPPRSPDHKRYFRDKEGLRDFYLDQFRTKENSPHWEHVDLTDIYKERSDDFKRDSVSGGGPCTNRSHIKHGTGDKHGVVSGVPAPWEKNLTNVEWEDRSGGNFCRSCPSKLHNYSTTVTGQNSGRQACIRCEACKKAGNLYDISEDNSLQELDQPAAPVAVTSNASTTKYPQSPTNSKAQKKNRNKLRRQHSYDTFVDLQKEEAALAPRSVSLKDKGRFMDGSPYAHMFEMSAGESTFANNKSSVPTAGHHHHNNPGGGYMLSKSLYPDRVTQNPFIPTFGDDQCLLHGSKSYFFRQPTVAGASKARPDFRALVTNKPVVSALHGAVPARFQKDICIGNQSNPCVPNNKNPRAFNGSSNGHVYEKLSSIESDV
Test: Radioligand binding, human temporal cortex homogenate
Conditions: room temp., geometric mean
Protocol: Radioligand binding assays were performed at room temperature (or 37° C.) in 96-well microtiter plates with a final assay volume of […] in 20 mM HEPES buffer (pH 7.4) containing 150 mM NaCl. […] Nonspecific binding was assessed using N-(3-chlorobenzyl)-4-iodobenzimidamide (final concentration, 10 μM), and total binding was measured by addition of DMSO (final concentration, 2%). […]
parameter: Ki (nM)

1) Cc1ccc(COC(=O)N2CC[C@H](CNc3ncccn3)[C@H](F)C2)cc1 [Form II] ... 3.1

====

test: Repeated once-daily oral dosing with food (Days 1-7) in healthy subjects, PK and PD; type: in vivo, human; conditions: male, human, plasma, oral, males, all doses pooled, Day 7; read-out: AUCinf, Mean (SD)
parameter: AUC(0-inf) (ng·h/mL)

1. Cc1ccc(COC(=O)N2CC[C@H](CNc3ncccn3)[C@H](F)C2)cc1 [Form II] ... 6770

====

Assay: Repeated once-daily oral dosing with food (Days 1-7) in healthy subjects, PK and PD
Type: in vivo, human
Conditions: both sexes, human, plasma, oral, 16 mg, young subjects, 16 mg, Day 7; read-out: AUC0-24, Mean (SD)
Protocol: A randomized, double-blind, placebo-controlled, parallel-dose group in-patient study is conducted to investigate the pharmacodynamic (PD) effects of crystalline Form II of Compound (I) in healthy subjects. The study is designed as a three-part, sequential study. […]
parameter: AUC(0-t)

1) Cc1ccc(COC(=O)N2CC[C@H](CNc3ncccn3)[C@H](F)C2)cc1 [Form II] ... 4300 ng·h/mL

====

assay: Human pharmacokinetic study, single ascending oral doses; type: in vivo; conditions: male, human, plasma, oral, 4 mg, 4 mg (fed), mean; read-out: t1/2 (converted)
parameter: half-life (h)

1. Cc1ccc(COC(=O)N2CC[C@H](CNc3ncccn3)[C@H](F)C2)cc1 [Form II] ... 17.3

====

assay: Repeated once-daily oral dosing with food (Days 1-7) in healthy subjects, PK and PD; type: in vivo, human; settings: female, human, plasma, oral, females, all doses pooled, Day 7; read-out: Cmax, Mean (SD)
parameter: Cmax

1. Cc1ccc(COC(=O)N2CC[C@H](CNc3ncccn3)[C@H](F)C2)cc1 [Form II] ... 373 ng/mL

====

experiment: Repeated once-daily oral dosing with food (Days 1-7) in healthy subjects, PK and PD; assay type: in vivo, human; conditions: both sexes, human, plasma, oral, 12 mg, intermediate age, 12 mg, Day 1; read-out: Vz/F, Mean (SD)
parameter: Vd/F (L)

1. Cc1ccc(COC(=O)N2CC[C@H](CNc3ncccn3)[C@H](F)C2)cc1 [Form II] ... 201

====

assay: Repeated once-daily oral dosing with food (Days 1-7) in healthy subjects, PK and PD; format: in vivo, human; conditions: both sexes, human, plasma, oral, 16 mg, young subjects, 16 mg, Day 7; read-out: tmax, Mean (SD)
parameter: Tmax

1. Cc1ccc(COC(=O)N2CC[C@H](CNc3ncccn3)[C@H](F)C2)cc1 [Form II] ... 1.75 h

====

Experiment: Human pharmacokinetic study, single ascending oral doses
Type: in vivo
Conditions: male, human, plasma, oral, 15 mg, fasted, mean
Protocol: Twenty-four healthy, young male subjects were assigned to 1 of 3 sequential treatment panels (A, B, and C). […] Plasma samples were analyzed for Form II concentrations using reversed phase high performance liquid chromatography with tandem mass spectrometric detection (Merck Research Laboratories). […]
parameter: AUC(0-t) (ng·h/mL)

1) Cc1ccc(COC(=O)N2CC[C@H](CNc3ncccn3)[C@H](F)C2)cc1 [Form II] ... 3520

====

target: GluN1a/GluN2B human receptors (Homo sapiens, UniProt Q05586+Q13224); assay: Radioligand binding, L(tk−) cell membranes expressing human GluN1a/GluN2B; set-up: expressed in transfected cells; host or cells: L(tk−) cells (mouse fibroblasts), dexamethasone-inducible expression; conditions: 37° C., geometric mean
parameter: Ki (nM)

1) Cc1ccc(COC(=O)N2CC[C@H](CNc3ncccn3)[C@H](F)C2)cc1 [Form II] ... 31

====

experiment: Repeated once-daily oral dosing with food (Days 1-7) in healthy subjects, PK and PD; assay type: in vivo, human; settings: both sexes, human, plasma, oral, 8 mg, young subjects, 8 mg, Day 7; read-out: Cmax, Mean (SD)
parameter: Cmax (ng/mL)

1. Cc1ccc(COC(=O)N2CC[C@H](CNc3ncccn3)[C@H](F)C2)cc1 [Form II] ... 224

====

assay: Human pharmacokinetic study, single ascending oral doses; assay type: in vivo; details: male, human, plasma, oral, 20 mg, fasted, mean; read-out: t1/2 (converted)
parameter: half-life (h)

1) Cc1ccc(COC(=O)N2CC[C@H](CNc3ncccn3)[C@H](F)C2)cc1 [Form II] ... 15.9

====

assay: Single-dose pharmacokinetics in rats (oral and IV); format: in vivo; details: male, Sprague-Dawley, rat, plasma; IV 2 mg/kg, mean (S.D.); read-out: CLp
parameter: clearance (L/h/kg)

1. Cc1ccc(COC(=O)N2CC[C@H](CNc3ncccn3)[C@H](F)C2)cc1 [Form II] ... 1.7

====

experiment: Human pharmacokinetic study, single ascending oral doses; format: in vivo; conditions: male, human, plasma, oral, 8 mg, fasted, mean
parameter: AUC(0-t)

1. Cc1ccc(COC(=O)N2CC[C@H](CNc3ncccn3)[C@H](F)C2)cc1 [Form II] ... 2150 ng·h/mL

====

test: Repeated once-daily oral dosing with food (Days 1-7) in healthy subjects, PK and PD; format: in vivo, human; details: both sexes, human, plasma, oral, 12 mg, intermediate age, 12 mg, Day 7; read-out: AUC0-24, Mean (SD)
parameter: AUC(0-t) (ng·h/mL)

1) Cc1ccc(COC(=O)N2CC[C@H](CNc3ncccn3)[C@H](F)C2)cc1 [Form II] ... 3840
